Values from ChEMBL document CHEMBL4321862

- Assayed system: Mu-type opioid receptor (Mus musculus)
- Assay procedure: Antagonist activity at mouse mu opioid receptor expressed in CHO cells cotransfected with Galphaqi5 assessed as inhibition of DAMGO-induced increase in intracellular calcium concentration preincubated for 60 mins in Fluo4AM solution followed by compound addition and further incubated for 15 mins followed by DAMGO stimulation by Fluo4AM dye based assay
# IC50 annotations
Kindly provide the numeric value in nM only, without the unit symbol.

{"Compound smiles": "Cl.O=C(N[C@H]1CC[C@@]2(O)[C@H]3Cc4ccc(O)c5c4[C@@]2(CCN3CC2CC2)[C@H]1O5)c1cccc2occc12", "Assayed system": "Mu-type opioid receptor (Mus musculus)", "IC50 (nM)": 50.7}

For the next question, use this compound.
Lookup: Dear colleague, please send me the reported IC50 for `Cl.O=C(N[C@H]1CC[C@@]2(O)[C@H]3Cc4ccc(O)c5c4[C@@]2(CCN3CC2CC2)[C@H]1O5)c1cccc2ccsc12` when you can.
Found: 566

---

- Assayed system: Delta-type opioid receptor (Homo sapiens)
- Assay procedure: Displacement of [3H]-[…] from human delta opioid receptor expressed in CHO cells incubated for […] by competitive radioligand binding assay
- Type: cell-based
Property label: pKi
When answering, recall that pKi equals minus log10 of the concentration in mol/L, and write that number alone.

Previously resolved entries follow.
{"Compound smiles": "Cl.O=C(N[C@@H]1CC[C@@]2(O)[C@H]3Cc4ccc(O)c5c4[C@@]2(CCN3CC2CC2)[C@H]1O5)c1ccc2ccsc2c1", "pKi": 8.69}
{"Compound smiles": "Cl.O=C(N[C@@H]1CC[C@@]2(O)[C@H]3Cc4ccc(O)c5c4[C@@]2(CCN3CC2CC2)[C@H]1O5)c1coc2ccccc12", "pKi": 7.99}

For the next question, use this molecule.
Lookup: With Delta-type opioid receptor (Homo sapiens) as the test system, provide measured pKi for this molecule: `Cl.O=C(N[C@@H]1CC[C@@]2(O)[C@H]3Cc4ccc(O)c5c4[C@@]2(CCN3CC2CC2)[C@H]1O5)c1ccc2ccoc2c1`
Found: 7.91

---

- System: Mus musculus
- Assay procedure: Inhibition of morphine-induced antinociceptive activity in subcutaneously dosed Swiss Webster mouse assessed as decrease in latency to tail withdrawal administered 5 mins before morphine stimulation observed for 20 mins by warm water tail withdrawal assay
- Format: functional
Entries whose AD50 is below 2 mg/kg take 1 (yes); entries at or above 2 mg/kg take 0 (no).

{"Compound smiles": "Cl.O=C(N[C@@H]1CC[C@@]2(O)[C@H]3Cc4ccc(O)c5c4[C@@]2(CCN3CC2CC2)[C@H]1O5)c1cccc2ccoc12", "Class label": "1 (yes)"}
{"Compound smiles": "Cl.O=C(N[C@@H]1CC[C@@]2(O)[C@H]3Cc4ccc(O)c5c4[C@@]2(CCN3CC2CC2)[C@H]1O5)c1cccc2occc12", "Class label": "0 (no)"}
{"Compound smiles": "Cl.O=C(N[C@H]1CC[C@@]2(O)[C@H]3Cc4ccc(O)c5c4[C@@]2(CCN3CC2CC2)[C@H]1O5)c1cc2ccccc2o1", "Class label": "0 (no)"}

Lookup: Say whether its AD50 is strictly beneath 2 mg/kg. Entry: `Cl.O=C(N[C@H]1CC[C@@]2(O)[C@H]3Cc4ccc(O)c5c4[C@@]2(CCN3CC2CC2)[C@H]1O5)c1cccc2cc[nH]c12`
Found: 0 (no)

Lookup: Say whether its AD50 is strictly beneath 2 mg/kg. Entry: `Cl.O=C(N[C@H]1CC[C@@]2(O)[C@H]3Cc4ccc(O)c5c4[C@@]2(CCN3CC2CC2)[C@H]1O5)c1cccc2ccsc12`
Found: 1 (yes)

Lookup: Say whether its AD50 is strictly beneath 2 mg/kg. Entry: `Cl.O=C(N[C@H]1CC[C@@]2(O)[C@H]3Cc4ccc(O)c5c4[C@@]2(CCN3CC2CC2)[C@H]1O5)c1coc2ccccc12`
Found: 0 (no)

Lookup: Say whether its AD50 is strictly beneath 2 mg/kg. Entry: `Cl.O=C(N[C@H]1CC[C@@]2(O)[C@H]3Cc4ccc(O)c5c4[C@@]2(CCN3CC2CC2)[C@H]1O5)c1cccc2occc12`
Found: 1 (yes)

---

Assay read-out Ki; system under study: Kappa-type opioid receptor (Mus musculus).
Kindly provide the numeric value in pM only, without the unit symbol.

{"Compound smiles": "Cl.O=C(N[C@@H]1CC[C@@]2(O)[C@H]3Cc4ccc(O)c5c4[C@@]2(CCN3CC2CC2)[C@H]1O5)c1ccc2sccc2c1", "Test result": 210}
{"Compound smiles": "Cl.O=C(N[C@@H]1CC[C@@]2(O)[C@H]3Cc4ccc(O)c5c4[C@@]2(CCN3CC2CC2)[C@H]1O5)c1csc2ccccc12", "Test result": 480}

For the next question, use this compound.
Lookup: With Kappa-type opioid receptor (Mus musculus) as the test system, provide measured Ki for this compound: `Cl.O=C(N[C@H]1CC[C@@]2(O)[C@H]3Cc4ccc(O)c5c4[C@@]2(CCN3CC2CC2)[C@H]1O5)c1ccc2ccsc2c1`
Found: 3720

---

# Ratio Ki annotations
- Assay procedure: Selectivity index, ratio of Ki for mouse kappa opioid receptor expressed in CHO cells to Ki for mouse mu opioid receptor expressed in CHO cells

Previously resolved entries follow.
{"Compound smiles": "Cl.O=C(N[C@@H]1CC[C@@]2(O)[C@H]3Cc4ccc(O)c5c4[C@@]2(CCN3CC2CC2)[C@H]1O5)c1cc2ccccc2s1", "Ratio Ki": 1.4}
{"Compound smiles": "Cl.O=C(N[C@H]1CC[C@@]2(O)[C@H]3Cc4ccc(O)c5c4[C@@]2(CCN3CC2CC2)[C@H]1O5)c1ccc2sccc2c1", "Ratio Ki": 5.6}
{"Compound smiles": "Cl.O=C(N[C@H]1CC[C@@]2(O)[C@H]3Cc4ccc(O)c5c4[C@@]2(CCN3CC2CC2)[C@H]1O5)c1ccc2ccsc2c1", "Ratio Ki": 13.3}
{"Compound smiles": "Cl.O=C(N[C@H]1CC[C@@]2(O)[C@H]3Cc4ccc(O)c5c4[C@@]2(CCN3CC2CC2)[C@H]1O5)c1ccc2occc2c1", "Ratio Ki": 12.1}
{"Compound smiles": "Cl.O=C(N[C@@H]1CC[C@@]2(O)[C@H]3Cc4ccc(O)c5c4[C@@]2(CCN3CC2CC2)[C@H]1O5)c1cccc2ccsc12", "Ratio Ki": 8.5}

For the next question, use this compound.
Lookup: Dear colleague, please send me the reported Ratio Ki for `Cl.O=C(N[C@@H]1CC[C@@]2(O)[C@H]3Cc4ccc(O)c5c4[C@@]2(CCN3CC2CC2)[C@H]1O5)c1ccc2sccc2c1` when you can.
Found: 1.5

---

- Assayed system: UniProtKB P42866
- Assay procedure: Agonist activity at recombinant mouse mu opioid receptor expressed in CHO cell membrane assessed as [35]-GTPgammaS binding incubated for […] by scintillation counting method
Property label: pEC50
When answering, recall that pEC50 equals minus log10 of the concentration in mol/L, and write that number alone.

Previously resolved entries follow.
{"Compound smiles": "Cl.O=C(N[C@H]1CC[C@@]2(O)[C@H]3Cc4ccc(O)c5c4[C@@]2(CCN3CC2CC2)[C@H]1O5)c1cccc2occc12", "Assayed system": "UniProtKB P42866", "pEC50": 9.11}
{"Compound smiles": "Cl.O=C(N[C@H]1CC[C@@]2(O)[C@H]3Cc4ccc(O)c5c4[C@@]2(CCN3CC2CC2)[C@H]1O5)c1coc2ccccc12", "Assayed system": "UniProtKB P42866", "pEC50": 8.80}
{"Compound smiles": "Cl.O=C(N[C@H]1CC[C@@]2(O)[C@H]3Cc4ccc(O)c5c4[C@@]2(CCN3CC2CC2)[C@H]1O5)c1ccc2sccc2c1", "Assayed system": "UniProtKB P42866", "pEC50": 8.61}
{"Compound smiles": "Cl.O=C(N[C@@H]1CC[C@@]2(O)[C@H]3Cc4ccc(O)c5c4[C@@]2(CCN3CC2CC2)[C@H]1O5)c1cccc2sccc12", "Assayed system": "UniProtKB P42866", "pEC50": 9.49}

Lookup: Dear colleague, please send me the reported pEC50 for `Cl.O=C(N[C@@H]1CC[C@@]2(O)[C@H]3Cc4ccc(O)c5c4[C@@]2(CCN3CC2CC2)[C@H]1O5)c1cccc2ccsc12` when you can.
Found: 8.53

Lookup: Dear colleague, please send me the reported pEC50 for `Cl.O=C(N[C@H]1CC[C@@]2(O)[C@H]3Cc4ccc(O)c5c4[C@@]2(CCN3CC2CC2)[C@H]1O5)c1ccc2ccsc2c1` when you can.
Found: 8.52

---

# Emax annotations
- Assayed system: UniProt P42866
- Assay procedure: Agonist activity at recombinant mouse mu opioid receptor expressed in CHO cell membrane assessed as [35]-GTPgammaS binding incubated for […] by scintillation counting method relative to DAMGO
Kindly provide the numeric value in % only, without the unit symbol.

{"Compound smiles": "Cl.O=C(N[C@H]1CC[C@@]2(O)[C@H]3Cc4ccc(O)c5c4[C@@]2(CCN3CC2CC2)[C@H]1O5)c1cc2ccccc2s1", "Property label": "Emax", "Units": "%", "Test result": 22.9}

Lookup: With UniProt P42866 as the test system, provide measured Emax for this compound: `Cl.O=C(N[C@@H]1CC[C@@]2(O)[C@H]3Cc4ccc(O)c5c4[C@@]2(CCN3CC2CC2)[C@H]1O5)c1coc2ccccc12`
Found: 43.2

Lookup: With UniProt P42866 as the test system, provide measured Emax for this compound: `Cl.O=C(N[C@@H]1CC[C@@]2(O)[C@H]3Cc4ccc(O)c5c4[C@@]2(CCN3CC2CC2)[C@H]1O5)c1cccc2occc12`
Found: 23.6

Lookup: With UniProt P42866 as the test system, provide measured Emax for this compound: `Cl.O=C(N[C@@H]1CC[C@@]2(O)[C@H]3Cc4ccc(O)c5c4[C@@]2(CCN3CC2CC2)[C@H]1O5)c1ccc2occc2c1`
Found: 52.2

Lookup: With UniProt P42866 as the test system, provide measured Emax for this compound: `Cl.O=C(N[C@H]1CC[C@@]2(O)[C@H]3Cc4ccc(O)c5c4[C@@]2(CCN3CC2CC2)[C@H]1O5)c1ccc2ccsc2c1`
Found: 18.1

Lookup: With UniProt P42866 as the test system, provide measured Emax for this compound: `Cl.O=C(N[C@@H]1CC[C@@]2(O)[C@H]3Cc4ccc(O)c5c4[C@@]2(CCN3CC2CC2)[C@H]1O5)c1csc2ccccc12`
Found: 29.9

Lookup: With UniProt P42866 as the test system, provide measured Emax for this compound: `Cl.O=C(N[C@@H]1CC[C@@]2(O)[C@H]3Cc4ccc(O)c5c4[C@@]2(CCN3CC2CC2)[C@H]1O5)c1ccc2ccoc2c1`
Found: 21.1
